Where do these numbers come from? They come from the supplement of paper PMC10567573.

B1: C22orf15 (parent)
chain: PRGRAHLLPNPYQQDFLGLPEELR

# Variants of: B1
# experiment: protein stability index of a GFP-peptide fusion (GPS, HEK-293T) (PSI 1-6); higher = more stable;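 further: lentivirally expressed fusions sorted by FACS into six bins by GFP to DsRed ratio, PSI derived from sequencing read proportions per bin multiplied by bin number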
# measurementContext: c terminus: a fixed tail appended
Rule: protein stability index of 4 or more gives fulfilled; anything lower gives not fulfilled.

>  <mutantLabel>
G18H

>  <labelValue>
fulfilled

$$$$
>  <mutantLabel>
L7S

>  <labelValue>
fulfilled

$$$$
>  <mutantLabel>
L7N

>  <labelValue>
fulfilled

$$$$
>  <mutantLabel>
G3F

>  <labelValue>
not fulfilled

$$$$
>  <mutantLabel>
R2F

>  <labelValue>
not fulfilled

$$$$
>  <mutantLabel>
R24V

>  <labelValue>
not fulfilled

$$$$
>  <mutantLabel>
L7V

>  <labelValue>
fulfilled

$$$$
>  <mutantLabel>
L8F

>  <labelValue>
not fulfilled

$$$$
>  <mutantLabel>
R2L

>  <labelValue>
not fulfilled

$$$$
>  <mutantLabel>
F16Q

>  <labelValue>
not fulfilled

$$$$
>  <mutantLabel>
Y12C

>  <labelValue>
not fulfilled

$$$$
>  <mutantLabel>
P11C

>  <labelValue>
not fulfilled

$$$$
>  <mutantLabel>
G3L

>  <labelValue>
not fulfilled

$$$$
>  <mutantLabel>
P1Q

>  <labelValue>
not fulfilled

$$$$
>  <mutantLabel>
P9Y

>  <labelValue>
not fulfilled

$$$$
>  <mutantLabel>
F16P

>  <labelValue>
fulfilled

$$$$
>  <mutantLabel>
L23F

>  <labelValue>
not fulfilled

$$$$
>  <mutantLabel>
L17T

>  <labelValue>
fulfilled

$$$$
>  <mutantLabel>
Y12V

>  <labelValue>
fulfilled

$$$$
>  <mutantLabel>
Y12I

>  <labelValue>
fulfilled

$$$$
>  <mutantLabel>
D15L

>  <labelValue>
not fulfilled

$$$$
>  <mutantLabel>
E22N

>  <labelValue>
not fulfilled

$$$$
>  <mutantLabel>
L17K

>  <labelValue>
fulfilled

$$$$
>  <mutantLabel>
Q14V

>  <labelValue>
not fulfilled

$$$$
>  <mutantLabel>
P1R

>  <labelValue>
not fulfilled

$$$$
>  <mutantLabel>
G3M

>  <labelValue>
not fulfilled

$$$$
>  <mutantLabel>
E22F

>  <labelValue>
not fulfilled

$$$$
>  <mutantLabel>
D15N

>  <labelValue>
not fulfilled

$$$$
>  <mutantLabel>
E21P

>  <labelValue>
not fulfilled

$$$$
>  <mutantLabel>
L23W

>  <labelValue>
not fulfilled

$$$$
>  <mutantLabel>
R2C

>  <labelValue>
not fulfilled

$$$$
>  <mutantLabel>
E21A

>  <labelValue>
not fulfilled

$$$$
>  <mutantLabel>
G18F

>  <labelValue>
not fulfilled

$$$$
>  <mutantLabel>
E22P

>  <labelValue>
not fulfilled

$$$$
>  <mutantLabel>
P9G

>  <labelValue>
not fulfilled

$$$$
>  <mutantLabel>
L17V

>  <labelValue>
fulfilled

$$$$
>  <mutantLabel>
L8G

>  <labelValue>
not fulfilled

$$$$
>  <mutantLabel>
Q14R

>  <labelValue>
not fulfilled

$$$$
>  <mutantLabel>
L17G

>  <labelValue>
not fulfilled

$$$$
>  <mutantLabel>
H6Q

>  <labelValue>
not fulfilled

$$$$
>  <mutantLabel>
Y12R

>  <labelValue>
fulfilled

$$$$
>  <mutantLabel>
H6V

>  <labelValue>
not fulfilled

$$$$
>  <mutantLabel>
H6W

>  <labelValue>
not fulfilled

$$$$
>  <mutantLabel>
R24E

>  <labelValue>
fulfilled

$$$$
>  <mutantLabel>
P9V

>  <labelValue>
not fulfilled

$$$$
>  <mutantLabel>
E22W

>  <labelValue>
not fulfilled

$$$$
>  <mutantLabel>
P20R

>  <labelValue>
not fulfilled

$$$$
>  <mutantLabel>
L23V

>  <labelValue>
not fulfilled

$$$$
>  <mutantLabel>
D15A

>  <labelValue>
not fulfilled

$$$$
>  <mutantLabel>
P11E

>  <labelValue>
fulfilled

$$$$
>  <mutantLabel>
P1T

>  <labelValue>
not fulfilled

$$$$
>  <mutantLabel>
Q13C

>  <labelValue>
not fulfilled

$$$$
>  <mutantLabel>
G3H

>  <labelValue>
not fulfilled

$$$$
>  <mutantLabel>
L7F

>  <labelValue>
not fulfilled

$$$$
>  <mutantLabel>
D15G

>  <labelValue>
not fulfilled

$$$$
>  <mutantLabel>
P11Y

>  <labelValue>
not fulfilled

$$$$
>  <mutantLabel>
P1Y

>  <labelValue>
not fulfilled

$$$$
>  <mutantLabel>
P1L

>  <labelValue>
not fulfilled

$$$$
>  <mutantLabel>
P1W

>  <labelValue>
not fulfilled

$$$$
>  <mutantLabel>
H6A

>  <labelValue>
not fulfilled

$$$$
>  <mutantLabel>
R2S

>  <labelValue>
fulfilled

$$$$
>  <mutantLabel>
E22C

>  <labelValue>
not fulfilled

$$$$
>  <mutantLabel>
R2P

>  <labelValue>
fulfilled

$$$$
>  <mutantLabel>
N10F

>  <labelValue>
not fulfilled

$$$$
>  <mutantLabel>
E21D

>  <labelValue>
not fulfilled

$$$$
>  <mutantLabel>
E21R

>  <labelValue>
not fulfilled

$$$$
>  <mutantLabel>
G18A

>  <labelValue>
fulfilled

$$$$
>  <mutantLabel>
G18I

>  <labelValue>
not fulfilled

$$$$
>  <mutantLabel>
P11F

>  <labelValue>
not fulfilled

$$$$
>  <mutantLabel>
L19A

>  <labelValue>
fulfilled

$$$$
>  <mutantLabel>
P20I

>  <labelValue>
not fulfilled

$$$$
>  <mutantLabel>
L19D

>  <labelValue>
fulfilled

$$$$
>  <mutantLabel>
A5I

>  <labelValue>
not fulfilled

$$$$
>  <mutantLabel>
L7C

>  <labelValue>
not fulfilled

$$$$
>  <mutantLabel>
R24A

>  <labelValue>
not fulfilled

$$$$
>  <mutantLabel>
P1M

>  <labelValue>
not fulfilled

$$$$
>  <mutantLabel>
Q13I

>  <labelValue>
not fulfilled

$$$$
>  <mutantLabel>
P20F

>  <labelValue>
not fulfilled

$$$$
